Entries and their measured pKd follow.
target: HLA-B*57:01; assay: IEDB peptide-MHC binding, purified MHC/direct/fluorescence; filed as Kd, often an IC50 or EC50 that approximates it; bounds were set here for any values at or beyond the usual limits of such assays; details: source organism: Bacillus anthracis
pKd: −log10 of the molar value.

- sequenceInput: "PTDYAKPQY"
  pKd: "≤ 4.70"

Then this sequence:
Reported pKd of TPRIANRLL : ≤ 4.70

====

molecular target: HLA-B*15:17; assay: IEDB peptide-MHC binding, purified MHC/direct/fluorescence; filed as Kd, often an IC50 or EC50 that approximates it; bounds were set here for any values at or beyond the usual limits of such assays; conditions: source organism: Burkholderia mallei
readoutType: Kd (µM)
Answer with a number only, understood to be in µM.

Reported Kd of IYDFYNAEY : 5.09

====

biological target: HLA-B*08:01; experiment: IEDB peptide-MHC binding, purified MHC/competitive/radioactivity; filed as Kd, often an IC50 or EC50 that approximates it; bounds were set here for any values at or beyond the usual limits of such assays; conditions: source organism: Dengue virus 2 Jamaica/1409/1983
readoutType: Kd (nM)
Answer with a number only, understood to be in nM.

Answered examples (3):
- sequenceInput: "LGKKKTPRM"
  testSystem: "HLA-B*08:01"
  Kd / nM: 378
- sequenceInput: "NPITLTAAL"
  testSystem: "HLA-B*08:01"
  Kd / nM: 69.6
- sequenceInput: "LNRRRRTAG"
  testSystem: "HLA-B*08:01"
  Kd / nM: 739

Then this sequence:
Reported Kd of EKEENLVNSL : 1840

====

target: HLA-A*24:03; assay: IEDB peptide-MHC binding, purified MHC/competitive/fluorescence; filed as Kd, often an IC50 or EC50 that approximates it; bounds were set here for any values at or beyond the usual limits of such assays; conditions: source organism: Homo sapiens
readoutType: Kd

- sequenceInput: "SSDLRSWTF"
  Kd: "≥ 20 µM"

Reported Kd of WLGHPFTPV : ≥ 20 µM

====

target: HLA-A*01:01; experiment: IEDB peptide-MHC binding, purified MHC/competitive/fluorescence; bounds were set here for any values at or beyond the usual limits of such assays; details: source organism: Zaire ebolavirus
readoutType: IC50 (µM)
Answer with a number only, understood to be in µM.

Item VTLDGQQFY ; assay system HLA-A*01:01; IC50 reported as 3.88

====

molecular target: HLA-A*31:01; assay: IEDB peptide-MHC binding, purified MHC/direct/fluorescence; filed as Kd, often an IC50 or EC50 that approximates it; bounds were set here for any values at or beyond the usual limits of such assays; settings: source organism: Vibrio parahaemolyticus
pKd: −log10 of the molar value.
readoutType: pKd

Reported pKd of ILRPLGIEY : ≤ 4.70

====

target: HLA-A*02:19; test: IEDB peptide-MHC binding, purified MHC/direct/fluorescence; filed as Kd, often an IC50 or EC50 that approximates it; bounds were set here for any values at or beyond the usual limits of such assays; settings: source organism: Mycobacterium tuberculosis
readoutType: Kd

Reported Kd of SIYYTLVRM : ≥ 20 µM

====

target: HLA-A*03:01; assay: IEDB peptide-MHC binding, purified MHC/competitive/fluorescence; filed as Kd, often an IC50 or EC50 that approximates it; bounds were set here for any values at or beyond the usual limits of such assays; details: source organism: Vibrio cholerae 2740-80
readoutType: Kd

Reported Kd of LAVFPAMFW : ≥ 20 µM

====

biological target: HLA-A*11:01; test: IEDB peptide-MHC binding, purified MHC/direct/fluorescence; filed as Kd, often an IC50 or EC50 that approximates it; bounds were set here for any values at or beyond the usual limits of such assays; settings: source organism: Influenza A virus (A/ruddy turnstone/Delaware/67/1998(H12N4))
readoutType: pKd
Scale note: pKd = -log10(concentration in M).

Reported pKd of IVFMWAIHH : 6.73

====

target: HLA-B*51:01; assay: IEDB peptide-MHC binding, purified MHC/competitive/fluorescence; filed as Kd, often an IC50 or EC50 that approximates it; bounds were set here for any values at or beyond the usual limits of such assays; settings: source organism: Cryptosporidium parvum Iowa II
readoutType: Kd

Reported Kd of DLAQDPMLI : ≥ 20 µM

====

target: HLA-B*45:01; assay: IEDB peptide-MHC binding, purified MHC/competitive/radioactivity; filed as Kd, often an IC50 or EC50 that approximates it; bounds were set here for any values at or beyond the usual limits of such assays; settings: source organism: SARS coronavirus Tor2
hey, just use YES if measured Kd is less than 1000 nM, otherwise NO

In: Hello, is Kd of the following sequence strictly smaller than 1000 nM? SEAFEYYHTL
Out: YES

In: Hello, is Kd of the following sequence strictly smaller than 1000 nM? SFYYIWKSYV
Out: NO

====

Entries and their measured Kd follow.
target: HLA-B*27:05; assay: IEDB peptide-MHC binding, purified MHC/direct/fluorescence; filed as Kd, often an IC50 or EC50 that approximates it; bounds were set here for any values at or beyond the usual limits of such assays; conditions: source organism: Burkholderia mallei

- sequenceInput: "IYDFYNAEY"
  result: "≥ 20 µM"

Then this sequence:
Reported Kd of IQRRGAQFQ : ≥ 20 µM

====

molecular target: HLA-A*29:02; assay: IEDB peptide-MHC binding, purified MHC/competitive/fluorescence; filed as Kd, often an IC50 or EC50 that approximates it; bounds were set here for any values at or beyond the usual limits of such assays; conditions: source organism: Bacillus anthracis str. CDC 684
readoutType: Kd (µM)
Answer with a number only, understood to be in µM.

Reported Kd of STIGYALKH : 0.0394

====

molecular target: HLA-A*23:01; assay: IEDB peptide-MHC binding, purified MHC/direct/fluorescence; filed as Kd, often an IC50 or EC50 that approximates it; bounds were set here for any values at or beyond the usual limits of such assays; details: source organism: Entamoeba histolytica HM-1:IMSS
readoutType: pKd
Scale note: pKd = -log10(concentration in M).

Item QYQNEINYL ; assay system HLA-A*23:01; pKd reported as 8.70

====

target: HLA-A*02:12; assay: IEDB peptide-MHC binding, purified MHC/competitive/fluorescence; filed as Kd, often an IC50 or EC50 that approximates it; bounds were set here for any values at or beyond the usual limits of such assays; conditions: source organism: Vibrio vulnificus YJ016
pKd: −log10 of the molar value.
readoutType: pKd

Item VTFGARASF ; assay system HLA-A*02:12; pKd reported as ≤ 4.70

====

target: HLA-A*02:02; assay: IEDB peptide-MHC binding, purified MHC/competitive/radioactivity; filed as Kd, often an IC50 or EC50 that approximates it; bounds were set here for any values at or beyond the usual limits of such assays; conditions: source organism: Hepatitis C virus (isolate 1)
pKd: −log10 of the molar value.
readoutType: pKd

Reported pKd of HSKKKCDEL : ≤ 4.15

====

target: HLA-A*68:02; assay: IEDB peptide-MHC binding, purified MHC/competitive/fluorescence; filed as Kd, often an IC50 or EC50 that approximates it; bounds were set here for any values at or beyond the usual limits of such assays; conditions: source organism: Entamoeba histolytica HM-1:IMSS
readoutType: Kd (nM)
Answer with a number only, understood to be in nM.

Item EVIRATYPS ; assay system HLA-A*68:02; Kd reported as 0.2

====

target: HLA-A*26:01; assay: IEDB peptide-MHC binding, purified MHC/direct/fluorescence; filed as Kd, often an IC50 or EC50 that approximates it; bounds were set here for any values at or beyond the usual limits of such assays; conditions: source organism: Encephalitozoon cuniculi GB-M1
pKd: −log10 of the molar value.
readoutType: pKd

- sequenceInput: "HPYVFCALL"
  pKd: "≤ 4.70"

Reported pKd of SPLPITLKY : ≤ 4.70

====

target: HLA-A*02:19; experiment: IEDB peptide-MHC binding, purified MHC/direct/fluorescence; filed as Kd, often an IC50 or EC50 that approximates it; bounds were set here for any values at or beyond the usual limits of such assays; details: source organism: Francisella tularensis subsp. tularensis FSC033
readoutType: Kd

Reported Kd of NTIEELSGY : ≥ 20 µM

====

target: HLA-B*35:01; assay: IEDB peptide-MHC binding, purified MHC/competitive/radioactivity; filed as Kd, often an IC50 or EC50 that approximates it; bounds were set here for any values at or beyond the usual limits of such assays; conditions: source organism: Vaccinia virus WR
Entries and their measured pKd follow.
Scale note: pKd = -log10(concentration in M).

Reported pKd of VPAAIMMIL : 4.73

Reported pKd of VPLPCQLMYA : 5.63

Reported pKd of GPMPYMISTY : 7.05

Reported pKd of LPTLFGRGV : 5.89
